- System: nude mice, A549 intrarenal xenograft, tumor weight change
- measurement_notes: NCI In Vivo Anticancer Drug Screen. Data for tumor model A549 Human Adenocarcinoma of Lung with characteristics of Type II Alveolar Epithelial cells (intrarenal inoculation) in NU/NU BALB/C (nude) mice
- assay_context: endpoint: mean tumor weight change; dose: 50.0 mg/kg/injection; schedule: Q04DX003 (ip); vehicle: water; higher = larger tumour
Inconclusive results are not listed.
value_kind: T/C

Look over these answered cases.
* O=NNc1ccc(Cl)cn1 | 26 % of control
* CC1(O)C=CC(=O)C=C1 | 100 % of control
* Cc1c(O)/c(=C\O)c2nc3c(=O)ccc(C(=O)NCCN(C)C)c3[nH]c2c1=O | 120 % of control

Consider the compound Nc1ncnc2c1nc(Cl)n2C1OC2COP(=O)(O)OC2C1O (stereo not given) and give its measured T/C. 85 % of control

Consider the compound COc1ccc2c(c1)-c1nn(CCCN(C)C)c3ccc([N+](=O)[O-])c(c13)N2 and give its measured T/C. 14 % of control

src = PubChem BioAssay AID278
